Kindly state pEC50 for each of the entries shown.
ASSAY SYSTEM: human APJ receptor (Homo sapiens (Human))
Sequence (P35414 whole entry): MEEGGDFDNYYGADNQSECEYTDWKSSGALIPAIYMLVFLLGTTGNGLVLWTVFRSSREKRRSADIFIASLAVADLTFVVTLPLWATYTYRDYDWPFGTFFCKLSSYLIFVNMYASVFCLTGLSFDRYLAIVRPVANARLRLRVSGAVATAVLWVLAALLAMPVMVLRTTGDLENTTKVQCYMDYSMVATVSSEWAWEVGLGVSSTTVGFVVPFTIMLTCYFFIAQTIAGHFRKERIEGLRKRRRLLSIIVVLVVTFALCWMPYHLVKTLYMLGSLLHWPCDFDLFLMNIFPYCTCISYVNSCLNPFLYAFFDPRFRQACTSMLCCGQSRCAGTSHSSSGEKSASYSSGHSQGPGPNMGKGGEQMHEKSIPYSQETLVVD
PROTOCOL: [35S]GTPγS binding assay on membranes from CHO cells stably expressing human APJ receptor
Format: biochemical
CONDITION: [35S]GTPγS SPA, read-out: Activity hAPJ SPA EC50 IP
Numbers only, as −log10 of the molar value.

Below: 3 molecules and their reported pEC50.
COc1ncnc(OC)c1-n1c(NS(=O)(=O)[C@@H](C)[C@@H](OC(C)C)c2cnc(C)cn2)nnc1C1CCC1    7.44
COc1cccc(OC)c1-n1c(NS(=O)(=O)[C@@H](C)[C@H](OCC(F)F)c2ncc(C)cn2)nnc1C1CCC1    7.74
COc1ncnc(OC)c1-n1c(NS(=O)(=O)[C@@H](C)[C@H](C)c2ncc(C)cn2)nnc1C1CC1    7.25

Quick one: pEC50 of COc1cccc(OC)c1-n1c(NS(=O)(=O)[C@@H](C)[C@H](OC)c2ncc(Cl)cn2)nnc1C1CCC1C#N (single isomer, unassigned) [Example 169.0] ? 7.68
